assay: M. tuberculosis H37Rv growth inhibitors, H37Rv strain (AID 1626); settings: stronger effect = higher value, concentration not given here;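 also: bacteria incubated seven days before Alamar blue readout; 0% = bacteria only wells and 100% = bacteria with antibiotic wells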
Among all 220,000 compounds or so, about 2,000 (0.91%) were called active. Roughly 2% stayed inconclusive and do not appear here. These entries were drawn from the full list. Potency and affinity values are given separately.
Measured metric: inhibition (%)
Report only the number, with the unit % understood.

# inhibition lookup, item "CCOc1ccc(-c2cn3ccccc3n2)cc1"
1.22

# inhibition lookup, item CN1CCN(CC#CC(C)(O)C2CC3C=CC2C3)CC1 (stereo not given)
8.02

# inhibition lookup, item Cc1ccc2c(c1)CC1(CN2C)C(=O)NC(=O)N(CCc2ccccc2)C1=O (stereo not given)
-6.53

# inhibition lookup, item "CCn1c(SCc2nc3ccccc3c(=O)[nH]2)nc2ccccc21"
11.6

Further cases:
# inhibition lookup, item "Cn1nccc1C(=O)Oc1ccc(/C=N/NC(=O)c2ccccc2O)cc1"
-6.68

# inhibition lookup, item "Cn1cc(Br)c(C(=O)NC(=S)Nc2ccc(S(N)(=O)=O)cc2)n1"
-5.09

# inhibition lookup, item "COC(=O)CS(=O)(=O)c1ccc(C)cc1"
-7.54

# inhibition lookup, item Cc1ccc(C(=O)COC(=O)CN2C(=O)C3C4CCC(C4)C3C2=O)cc1[N+](=O)[O-] (stereo not given)
19.5

# inhibition lookup, item "Cc1nc(N2CCCCC2)c2c(C)c(C(=O)Nc3ccccc3C(F)(F)F)sc2n1"
1.26

# inhibition lookup, item "CC1=C(/C=C/C(C)=C/C=C/C(C)=C/C(=O)O)C(C)(C)CCC1"
-5.32

# inhibition lookup, item OC(c1cc(C(F)(F)F)nc2c(Cl)cc(Cl)cc12)C1CCCCN1 (stereo not given)
49.4

# inhibition lookup, item "CC1=C(/C=C/C(C)=C/C=C/C(C)=C\C(=O)O)C(C)(C)CCC1"
-10.9

# inhibition lookup, item Cc1ccc(CSCc2ccc(C(=O)NCC3CCCO3)o2)cc1 (stereo not given)
6.03

# inhibition lookup, item "Cc1ccc(CN2CCN(/N=C/c3cc(Br)ccc3O)CC2)cc1"
2.82
